Origin of measurements: patent US4510158A

Test system: human complement (C1-C9), classical complement pathway
PROTOCOL_TEXT: Hemolytic molecular titrations of classical complement activity (lysis of sensitized sheep erythrocytes by normal human serum)
Assay type: biochemical
TEST_SETTINGS: concentration effecting 50% suppression of lysis (Z/Zo=0.5), 37° C., 60 min, read-out: Classical Complement Pathway Inhibition IC50
// IC50 lookup, one value per entry
Express your answer in µM, writing the number without its unit.

O=C(O)c1ccc(-c2c(-c3ccccc3)[nH]c3ccccc23)cc1 [Example 15, 4-(2-Phenyl-1H-indol-3-yl)benzoic acid] ... 105

Alright, here's another molecule for you.
The value of IC50 measured for the molecule O=C(O)C1CC=C(c2c(-c3ccccc3)[nH]c3ccccc23)CC1 (centres unmarked) [Example 1] turned out to be 135
